Below, each entry is listed alongside its reported Vmax(i) AChE.
experimental-system: human erythrocyte acetylcholinesterase (AChE) (Homo sapiens, UniProt P22303)
Construct: from tissue; host or cells: haemolysed erythrocytes of healthy human donors
Sequence (P22303 other isoform, or with tags, fused parts or gaps): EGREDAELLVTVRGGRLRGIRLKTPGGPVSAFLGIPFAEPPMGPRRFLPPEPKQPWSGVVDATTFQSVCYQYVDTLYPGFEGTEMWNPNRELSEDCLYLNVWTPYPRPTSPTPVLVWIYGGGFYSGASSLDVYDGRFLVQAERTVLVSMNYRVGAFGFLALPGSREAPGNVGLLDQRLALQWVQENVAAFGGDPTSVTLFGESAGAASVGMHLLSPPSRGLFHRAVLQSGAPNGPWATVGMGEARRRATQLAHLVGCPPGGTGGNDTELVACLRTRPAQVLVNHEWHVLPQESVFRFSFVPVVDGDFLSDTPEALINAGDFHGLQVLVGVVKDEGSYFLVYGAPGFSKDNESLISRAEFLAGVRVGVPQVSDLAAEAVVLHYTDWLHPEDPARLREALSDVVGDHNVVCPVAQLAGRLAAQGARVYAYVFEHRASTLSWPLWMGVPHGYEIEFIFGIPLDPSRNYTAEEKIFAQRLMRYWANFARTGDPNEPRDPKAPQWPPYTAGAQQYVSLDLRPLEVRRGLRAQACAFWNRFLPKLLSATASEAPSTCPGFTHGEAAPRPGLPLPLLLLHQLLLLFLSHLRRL
assay-remarks: Kinetic parameters and type of AChE inhibition (Hanes–Woolf)
Type: biochemical
test-parameters: C: inhibitor at IC50; mean ± SD
measured-endpoint: Vmax(i) AChE (A/min)

compound=CN(C)C(=N)N=C(N)NS(=O)(=O)c1ccc([N+](=O)[O-])cc1 result_unit=A/min assay_value=0.112
compound=CN(C)C(=N)N=C(N)NS(=O)(=O)c1ccc(C(F)(F)F)cc1[N+](=O)[O-] result_unit=A/min assay_value=0.146
compound=CN(C)C(=N)N=C(N)NS(=O)(=O)c1ccccc1[N+](=O)[O-] result_unit=A/min assay_value=0.119
compound=CCCCCCSNC(N)=NC(=N)N(C)C result_unit=A/min assay_value=0.161
compound="CCCCC(CC)CSNC(N)=NC(=N)N(C)C (centres unmarked)" result_unit=A/min assay_value=0.160
